Cytochrome P450 2D6 (Homo sapiens, UniProt P10635) AC50 data;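 note: CYP2D6 member of a cytochrome P450 panel assay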
Sequence (P10635 whole entry): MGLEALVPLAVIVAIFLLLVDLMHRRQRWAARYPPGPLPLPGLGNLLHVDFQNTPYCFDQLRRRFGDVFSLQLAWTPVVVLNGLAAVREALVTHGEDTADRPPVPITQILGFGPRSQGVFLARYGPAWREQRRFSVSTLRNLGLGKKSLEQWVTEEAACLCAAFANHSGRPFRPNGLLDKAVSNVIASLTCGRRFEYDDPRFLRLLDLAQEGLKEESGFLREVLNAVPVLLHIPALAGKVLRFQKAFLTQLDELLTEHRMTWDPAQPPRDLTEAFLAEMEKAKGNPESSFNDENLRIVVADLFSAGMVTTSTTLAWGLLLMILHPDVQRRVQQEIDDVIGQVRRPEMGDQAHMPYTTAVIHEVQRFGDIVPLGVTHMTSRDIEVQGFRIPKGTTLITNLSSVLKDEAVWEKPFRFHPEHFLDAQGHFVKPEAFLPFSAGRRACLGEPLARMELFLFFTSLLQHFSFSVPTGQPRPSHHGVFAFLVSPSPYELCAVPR

COMPOUND	MEASURED ENDPOINT	RESULT
Cc1cnc(CNc2nc(-c3ccoc3)nc3ccccc23)cn1	AC50	20 µM (inconclusive)
COc1cccc(Cn2c(=O)c(-c3cccs3)nc3cncnc32)c1	AC50	6.31 µM (inconclusive)

Here is the next item to consider.
Consider the compound shown here: COc1cc(/C=C(\C#N)c2nc3c(s2)CC(C)CC3)ccc1O (stereo not drawn) What is its recorded AC50?
28.2 µM (inconclusive)

###

- SYSTEM TESTED: UniProt P05187
- Sequence (P05187 whole entry): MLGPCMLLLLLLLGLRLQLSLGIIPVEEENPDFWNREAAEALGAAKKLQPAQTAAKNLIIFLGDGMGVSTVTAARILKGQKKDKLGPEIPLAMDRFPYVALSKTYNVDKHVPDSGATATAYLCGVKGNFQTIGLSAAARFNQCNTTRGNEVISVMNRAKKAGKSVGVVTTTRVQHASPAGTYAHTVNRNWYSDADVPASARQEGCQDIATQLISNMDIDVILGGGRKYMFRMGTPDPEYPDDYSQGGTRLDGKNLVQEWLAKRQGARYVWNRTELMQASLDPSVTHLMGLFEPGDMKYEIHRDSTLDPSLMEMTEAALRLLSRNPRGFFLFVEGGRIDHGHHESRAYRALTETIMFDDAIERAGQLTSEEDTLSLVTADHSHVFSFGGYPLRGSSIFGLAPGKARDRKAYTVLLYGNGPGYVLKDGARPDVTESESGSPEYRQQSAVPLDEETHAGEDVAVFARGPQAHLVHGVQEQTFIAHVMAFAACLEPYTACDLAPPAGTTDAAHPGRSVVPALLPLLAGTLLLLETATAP
- PROTOCOL TEXT: human placental alkaline phosphatase inhibition – biochemical, luminescence, confirmation (AID 1512)
- Assay type: functional
Calls of active or inactive are those of the source.
Hello, when you answer, please use one of the following outcomes: 1 for active, -1 for inactive

SMILES CODE	ASSIGNED CATEGORY
CCN(CC)CCCNC(=O)CCC(=O)NNc1nc2ccccc2c2nc(C)nn12	-1
COc1ccccc1-c1nnc(SCc2ccc(C(=O)O)cc2)[nH]1	-1

Kindly provide the recorded test outcome for the following molecule: O=C(NC1(C(F)(F)F)Oc2cc(Cl)c(Cl)cc2O1)N1CCC2(CC1)OCCO2
-1

What did the test return for Oc1cc(-c2cccc3ccccc23)[nH]n1 ?
-1

Test call for this molecule, please: CCCc1cc(=O)[nH]c(-n2nc3c(c2O)CCCC3)n1
-1

Called result for Cc1cnn(CC(=O)c2ccc(O)c(O)c2)c1
1

How did this test come out for O/N=C/c1cc(Cl)ccc1OCc1cccc2ccccc12 ?
-1

The reported numbers originate from ChEMBL document CHEMBL1201862.
